Target: human orexin-2 receptor (Homo sapiens (Human), UniProt O43614)
Sequence (O43614 whole entry): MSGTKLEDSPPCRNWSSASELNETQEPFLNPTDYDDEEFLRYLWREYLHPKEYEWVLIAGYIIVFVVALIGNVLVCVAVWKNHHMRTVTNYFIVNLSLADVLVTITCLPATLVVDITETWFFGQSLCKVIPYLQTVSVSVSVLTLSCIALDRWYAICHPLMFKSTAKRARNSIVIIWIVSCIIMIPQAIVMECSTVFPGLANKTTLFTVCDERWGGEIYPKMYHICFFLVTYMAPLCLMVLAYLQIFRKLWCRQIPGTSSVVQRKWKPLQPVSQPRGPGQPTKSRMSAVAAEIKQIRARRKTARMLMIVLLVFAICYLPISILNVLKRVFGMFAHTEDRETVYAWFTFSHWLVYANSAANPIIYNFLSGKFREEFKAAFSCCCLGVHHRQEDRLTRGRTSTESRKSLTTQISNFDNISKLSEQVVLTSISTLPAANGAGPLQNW
Experiment: radioligand binding assay, orexin-2 receptor (membranes from CHO cells)
Conditions: CHO cell membranes, read-out: hOX2 hKi
measured-endpoint: Ki
Please give the number followed by its unit.

Some compounds with recorded Ki:
• CCOc1ccc(C(=O)N2C[C@H](Oc3cc(C#N)ccn3)CC[C@H]2C)c(-n2nccn2)c1 = 3.92 µM
• C[C@@H]1CC[C@@H](Oc2cc(C#N)ccn2)CN1C(=O)c1sccc1-c1ncccn1 = 0.0059 µM
• C[C@@H]1CC[C@@H](Oc2cc(C#N)ccn2)CN1C(=O)c1ccc(F)cc1-c1ncccn1 = 0.0035 µM

For the next question, use this compound.
Give reported Ki for C[C@@H]1CC[C@@H](Oc2cc(C#N)ccn2)CN1C(=O)c1sccc1-n1nccn1 (human orexin-2 receptor (Homo sapiens (Human), UniProt O43614))
0.015 µM
